- Tested on: SN12C renal
- PROCEDURE SUMMARY: NCI-60 one-dose screen, 48 h (100 = growth as untreated, 0 = no growth, -100 = all killed)
- TEST CONDITIONS: 10 µM unless noted
Compounds without any hit were thinned out: in the full panel of roughly 83,000, 20% have a hit.
RESULT TYPE: growth (%)
Please state the figure in %; there is no need to write the unit.

| COMPOUND | MEASURE UNIT | NUMERIC RESULT |
| --- | --- | --- |
| CN1CCN(c2ccc(OC(F)(F)F)c(Nc3ncc4c(n3)-c3c(c(C(N)=O)nn3CCO)CC4)c2)CC1 | % | 25.9 |
| O=C(c1ccccc1)C(c1ccccc1)N1CCOCC1 (stereo not drawn) | % | 101 |
| COc1ccc(C(=O)N2c3ccccc3Sc3ccccc32)c(F)c1 | % | 60.8 |
| COc1cc(NCCCN)c2ncccc2c1 | % | 84.7 |

# input compound: `Cc1cnc(NC(=O)Nc2cc(Br)c(C)cc2OC[C@@H]2CNCCO2)cn1` ; wanted: its growth 39.5

# growth lookup, item COC(=O)C1CCc2sc3ncnc(Nc4cn[nH]c4C(=O)Nc4ccc(CN5CCN(C)CC5)cc4)c3c21 (stereo not drawn) 12.7

Look up growth for this compound: `CC(C)(O)CC(=O)NCCn1ccc2ncnc(Nc3ccc(Oc4cccc(C(F)(F)F)c4)c(Cl)c3)c21` 12.4

Source of measurements: PubChem BioAssay (NCI)
